This collection of values is drawn from patent US20030153575A1.

Tgt: human recombinant PDE5 (Homo sapiens, UniProt O76074)
Experiment: Inhibitory effect on cGMP-PDE (PDE5 IC50)
Measurement setup: in vitro, human recombinant PDE5, 0.15 μM 8-[H3]-cGMP, 30 min incubation
pIC50: −log10 of the molar value.
Property: pIC50

[A] CN1CC(=O)N2[C@H](c3ccc(O)c(O)c3)c3[nH]c4ccccc4c3C[C@@H]2C1=O [Example 1]
[B] COc1cc([C@@H]2c3[nH]c4ccccc4c3C[C@@H]3C(=O)N(C)CC(=O)N23)ccc1O [Example 2]
Input: Could you point out whether the larger pIC50 belongs to A or to B ? # answer = label of selected item
Output: A
